These entries and their values trace back to PubChem BioAssay (NCATS).

ASSAY_PROCEDURE: S16 Schwann cell PMP22 intronic element firefly luciferase assay (AID 624032); further: nearly all actives have a fitted effect of over 30% in size
STUDY_CONDITIONS: S16 rat Schwann cells, PMP22 element FLuc, 24 h; series mostly up to 57.5 µM
Records with an inconclusive call do not appear. Calls of active or inactive are those of the source. The call rests on the fitted dose curve; in most records, active means well fitted inhibition curve with a large enough effect; inconclusive means small, poorly fitted or top-dose-only effect; inactive means no such curve, though single readings can be large or run the other way.
Give your call using only these classes: active, inactive

- MOLECULE: "COc1cc2c(cc1OC)C(c1ccccc1)CN(C)CC2 (stereo unspecified)"
  CLASS_LABEL: "inactive"
- MOLECULE: "CC(/C=C1\\SC(=S)N(CC(=O)O)C1=O)=C\\c1ccccc1"
  CLASS_LABEL: "inactive"
- MOLECULE: "Oc1ccc(/C=C\\c2cc(O)cc(O)c2)cc1"
  CLASS_LABEL: "inactive"
- MOLECULE: "COc1ccc(CCNC[C@@H](O)c2ccc(O)cc2)cc1OC"
  CLASS_LABEL: "inactive"
- MOLECULE: "C=C1CCC2[C@](C)(CO)C(O)CC[C@]2(C)C1C/C=C1/C(=O)OCC1O (stereo partly specified)"
  CLASS_LABEL: "active"

Now consider the entry below.
What was the test verdict on `CO[C@H]1/C=C/O[C@@]2(C)Oc3c(C)c(O)c4c(O)c(c(/C=N\N5CCN(C6CCCC6)CC5)c(O)c4c3C2=O)NC(=O)/C(C)=C\C=C\[C@H](C)[C@H](O)[C@@H](C)[C@@H](O)[C@@H](C)[C@H](OC(C)=O)[C@@H]1C` ?
active
